Reported values of Activity with respect to Tle-NH2 for individual entries
Test system: D-amidase
methodSummary: Enzyme test for acid amides, activity by determination of ammonium ions with glutamate dehydrogenase
Assay type: biochemical, Variovorax paradoxus
statedConditions: substrate 40 mM; DL-Tle-NH2 = 1
Protocol: The activity was measured by determination of the ammonium ions with glutamate dehydrogenase (Bergmeyer, H. U., and Beutler, H.-O. (1985), Ammonia. In: Methods of Enzymatic Analysis. VCH-Verlag, 3rd edition, vol. 8: 454-461, Weinheim). […] Since the activities were determined only at in each case one substrate concentration, relative activities are stated. […]
Reply with just the number.

- CCCCC(N)=O [Valeric acid amide]: 36
- NC=O [Formamide]: 0.13
- CCCC(N)=O [Butyramide]: 37

QUERY: Look up Activity with respect to Tle-NH2 for this compound: CC(N)=O [Acetamide]
RESULT: 4.0

QUERY: How about this compound: CC(C)(C)C(N)C(N)=O (racemic) [DL-Tle-NH2, D,L-tert-Leucinamide]
RESULT: 1

----------
Tested on: D-amidase
methodSummary: Enzyme test for amino acid amides and α-hydroxycarboxylic acid amides (HPLC or NH4+ determination)
Format: biochemical, Variovorax paradoxus
statedConditions: substrate 40 mM; DL-Tle-NH2 = 1
Hi! Could you tag entries with Activity with respect to Tle-NH2 below 60 as true (1), and those at or above as false (0)? Much appreciated.

Example results:
• CC(C)[C@H](N)C(N)=O [L-Val-NH2] = true (1)
• CSCCC(N)C(N)=O (racemic) [DL-Met-NH2] = false (0)
• CC(C)(C)C(N)C(N)=O (racemic) [DL-Tle-NH2, D,L-tert-Leucinamide] = true (1)
• CC(O)C(N)=O [L-Lac-NH2, lactic acid amide] = false (0)

QUERY: Answer whether the molecule CSCC[C@H](N)C(N)=O [L-Met-NH2] has Activity with respect to Tle-NH2 strictly less than 60
RESULT: false (0)

QUERY: Similarly, CSCCC(O)C(N)=O (racemic) [DL-MHA-NH2] ?
RESULT: false (0)

QUERY: Also check NC(=O)[C@@H]1CCCN1 [L-Pro-NH2, prolinamide]
RESULT: true (1)

QUERY: Now consider NC(=O)C(N)Cc1c[nH]c2ccccc12 (racemic) [DL-Trp-NH2] and answer again.
RESULT: false (0)

----------
Listing of recorded Specific activity by entry.
Test system: D-amidase
methodSummary: Enzyme test for amino acid amides and α-hydroxycarboxylic acid amides (HPLC or NH4+ determination)
Format: biochemical, Variovorax paradoxus
statedConditions: substrate 40 mM; partly purified D-amidase after the 2nd chromatography step (0.56 U/mg); Pro-, Lac-, MHA-NH2 by NH4+ determination
Numeric only. Scale: U/mg

QUERY: State the recorded Specific activity for this entry: CSCCC(N)C(N)=O (racemic) [DL-Met-NH2]
RESULT: 130

QUERY: Next entry: NC(=O)[C@@H]1CCCN1 [D-Pro-NH2, prolinamide]
RESULT: 12

QUERY: And NC(=O)[C@@H]1CCCN1 [L-Pro-NH2, prolinamide] ?
RESULT: 28

QUERY: Now consider CC(O)C(N)=O [D-Lac-NH2, lactic acid amide] and answer again.
RESULT: 29

QUERY: What would you report for NC(=O)[C@@H](N)Cc1c[nH]c2ccccc12 [L-Trp-NH2] ?
RESULT: 34

QUERY: Further, for CSCC[C@H](N)C(N)=O [L-Met-NH2] ?
RESULT: 48

QUERY: Can you handle CC(C)[C@@H](N)C(N)=O [D-Val-NH2] next?
RESULT: 6.9

QUERY: Again, but for C[C@@H](N)C(N)=O [D-Ala-NH2]
RESULT: 23

QUERY: C[C@H](N)C(N)=O [L-Ala-NH2] ?
RESULT: 7.7
